Origin of measurements: paper PMC11999280

Test system: mCherry-GAL9 expressing NCI-H358 cells
PROTOCOL_SUMMARY: GAL9 recruitment assay, NCI-H358
Format: cell-based
ASSAY_CONTEXT: EEE 0.62 µM, calculated mean from >3 independent exp.
EXPERIMENTAL_ENDPOINT: Gal9 response compared to reference
Give the value as a plain number.

-- ask I have this molecule here, `COc1nn(C2CCN(C)CC2)cc1Nc1ncc(C(F)(F)F)c(-n2ccc3c(C#N)cccc32)n1` , and I need its recorded Gal9 response compared to reference.
-- reply 0.017

-- ask I have this molecule here, `CCOc1nn(C2CCN(C)CC2)cc1Nc1ncc(C(F)(F)F)c(-c2c[nH]c3ccccc23)n1` , and I need its recorded Gal9 response compared to reference.
-- reply 0.016

-- ask I have this molecule here, `COc1nn(C2CCNCC2)cc1Nc1ncc(F)c(-c2c[nH]c3ccccc23)n1` , and I need its recorded Gal9 response compared to reference.
-- reply 0.015

-- ask I have this molecule here, `COc1nn(C2CCN(C)CC2)cc1Nc1ncc(Cl)c(-n2ccc3c(C#N)cccc32)n1` , and I need its recorded Gal9 response compared to reference.
-- reply 0.019

-- ask I have this molecule here, `COc1nn(C2CCN(C)CC2)cc1Nc1ncc(F)c(-n2ccc3c(C#N)cccc32)n1` , and I need its recorded Gal9 response compared to reference.
-- reply 0.032

-- ask I have this molecule here, `COc1nn(C2CCNCC2)cc1Nc1ncc(C(F)(F)F)c(-c2c[nH]c3ccccc23)n1` , and I need its recorded Gal9 response compared to reference.
-- reply 0.018

***
-- ask I have this molecule here, `CCCN1CCC(n2cc(Nc3ncc(F)c(-n4ccc5c(C#N)cccc54)n3)c(OC)n2)CC1` , and I need its recorded Gal9 response compared to reference.
-- reply 0.016

-- ask I have this molecule here, `CCN1CCC(n2cc(Nc3ncc(F)c(-n4ccc5c(C#N)cccc54)n3)c(OC)n2)CC1` , and I need its recorded Gal9 response compared to reference.
-- reply 0.020

-- ask I have this molecule here, `COc1nn(C2CCN(CCCO)CC2)cc1Nc1ncc(F)c(-n2ccc3c(C#N)cccc32)n1` , and I need its recorded Gal9 response compared to reference.
-- reply 0.032

-- ask I have this molecule here, `COc1nn(C2CCNCC2)cc1Nc1ncc(F)c(-n2ccc3c(C#N)cccc32)n1` , and I need its recorded Gal9 response compared to reference.
-- reply 0.026

-- ask I have this molecule here, `CCOc1nn(C2CCN(C)CC2)cc1Nc1ncc(F)c(-n2ccc3c(C#N)cccc32)n1` , and I need its recorded Gal9 response compared to reference.
-- reply 0.018

-- ask I have this molecule here, `COc1nn(C2CCN(C)CC2)cc1Nc1ncc(F)c(-n2ccc3ccc(C#N)cc32)n1` , and I need its recorded Gal9 response compared to reference.
-- reply 0.019

-- ask I have this molecule here, `COc1nn(C2CCN(C(C)C)CC2)cc1Nc1ncc(F)c(-n2ccc3c(C#N)cccc32)n1` , and I need its recorded Gal9 response compared to reference.
-- reply 0.020
